The reported numbers originate from paper doi:10.1101/2021.10.07.463234v2.

The entries below are paired with their reported inhibition at 100 µM.
system: UniProt P0DTD1
assayNotes: biochemical
setupConditions: read-out: %inhibition
Structures can show the parent of a compound that is named as a salt.

{"columns": ["molecule", "unitAnnotation", "inhibition at 100 µM"],
 "data": [
  ["CC(=O)O[C@@]12CO[C@@H]1C[C@H](O)[C@@]1(C)C(=O)[C@H](O)C3=C(C)[C@@H](OC(=O)[C@H](O)[C@@H](NC(=O)OC(C)(C)C)c4ccccc4)C[C@@](O)([C@@H](OC(=O)c4ccccc4)[C@H]21)C3(C)C [Docetaxel]", "%", 11.6],
  ["CCCCOc1ccc(OCCCN2CCOCC2)cc1 [Pramoxine HCl]", "%", 25.7],
  ["COC(=O)c1ccccc1O [Methyl salicylate]", "%", 7.14],
  ["N=C(N)NN [Aminoguanidine hydrochloride]", "%", 4.16],
  ["CCCc1nc(C)c2c(O)nc(-c3cc(S(=O)(=O)N4CCN(CC)CC4)ccc3OCC)nn12 [Vardenafil HCl Trihydrate]", "%", 3.9],
  ["CC1(COc2ccc3c(c2)ncn3-c2ccc3cccc(N4CCC(N)CC4)c3n2)COC1 [Crenolanib (CP-868596)]", "%", 0],
  ["Nc1nc(=O)c2nc(CNc3ccc(C(=O)N[C@@H](CCC(=O)O)C(=O)O)cc3)cnc2[nH]1 [Folic acid]", "%", 11.4],
  ["C[C@H](Oc1ccc(S(C)(=O)=O)cc1C(=O)N1CCN(c2ncc(C(F)(F)F)cc2F)CC1)C(F)(F)F [Bitopertin]", "%", 0],
  ["CN(C)C(=O)COC(=O)Cc1ccc(OC(=O)c2ccc(NC(=N)N)cc2)cc1 [Camostat Mesilate]", "%", 42.9],
  ["Cc1ccc(=O)n(-c2ccccc2)c1 [Pirfenidone]", "%", 15.4],
  ["NC1=NCC2c3ccccc3Cc3ccccc3N12 (stereo not drawn) [Epinastine HCl]", "%", 4.62],
  ["C[C@H](NCc1ccc(OCc2cccc(F)c2)cc1)C(N)=O [Safinamide]", "%", 15],
  ["OC[C@H]1O[C@@H](c2ccc(Cl)c(Cc3ccc(O[C@H]4CCOC4)cc3)c2)[C@H](O)[C@@H](O)[C@@H]1O [Empagliflozin (BI 10773)]", "%", 0],
  ["CCC[C@@H]1C[C@@H](C(=O)N[C@@H]([C@H]2O[C@H](SC)[C@H](OP(=O)(O)O)[C@@H](O)[C@H]2O)[C@H](C)Cl)N(C)C1 [Clindamycin Phosphate]", "%", 0],
  ["Nc1[nH]cnc2ncnc1-2 [Adenine HCl]", "%", 9.72],
  ["NC(=O)CC[C@H](N)C(=O)O [L-Glutamine]", "%", 0],
  ["Cc1cccc(C(C)c2c[nH]cn2)c1C (stereo not drawn) [Medetomidine HCl]", "%", 21.9],
  ["CNC(=O)c1ccc2cc([C@@]3(O)CCn4cncc43)ccc2c1 [TAK-700 (Orteronel)]", "%", 0]
]}

* * *

The entries below are paired with their reported %inhibition.
system: SARS-CoV-2 Mac1 (Severe acute respiratory syndrome coronavirus 2)
assayNotes: biochemical
setupConditions: 100 µM; inhibitor
Counter-ions that a name gives are not always drawn.
observationType: %inhibition (%)

{"columns": ["compound", "value"],
 "data": [
  ["Nc1ncnc2c1ncn2[C@@H]1O[C@H](CO)[C@@H](O)[C@@H]1O", 17.83],
  ["CC1=NN(c2ccc(C)c(C)c2)C(=O)/C1=N\\Nc1cccc(-c2cccc(C(=O)O)c2)c1O [Eltrombopag Olamine]", 18.42],
  ["CN1CCN(c2ccc3nc(-c4c(N)c5c(F)cccc5[nH]c4=O)[nH]c3c2)CC1 [Dovitinib (TKI258) Lactate]", 26.03],
  ["CC(=O)Oc1ccccc1C(=O)O [Carbasalate Calcium]", 5.528],
  ["CN1c2ccccc2C(NCCCCCCC(=O)O)c2ccc(Cl)cc2S1(=O)=O (centres unmarked) [Tianeptine]", 12.39],
  ["N=C(N)NC(=O)c1nc(Cl)c(N)nc1N [Amiloride HCl]", 0],
  ["Cc1ccc(C(=O)c2ccc(CC(=O)O)n2C)cc1 [Tolmetin]", 4.72],
  ["CO/N=C(\\C(=O)N[C@@H]1C(=O)N2C(C(=O)O)=C(CSC(=O)c3ccco3)CS[C@H]12)c1csc(N)n1 [Ceftiofur HCl]", 20.8],
  ["C[C@H](NCc1ccc(OCc2cccc(F)c2)cc1)C(N)=O [Safinamide Mesylate]", 9.23],
  ["COc1nc2ccc(Br)cc2cc1[C@@H](c1ccccc1)[C@@](O)(CCN(C)C)c1cccc2ccccc12 [Bedaquiline]", 4.292],
  ["COc1ccc(C[C@@H]2c3cc(OC)c(OC)cc3CC[N@+]2(C)CCC(=O)OCCCCCOC(=O)CC[N@@+]2(C)CCc3cc(OC)c(OC)cc3[C@H]2Cc2ccc(OC)c(OC)c2)cc1OC [Atracurium Besylate]", 4.976]
]}

* * *

system: SARS-CoV-2 Mac1 (Severe acute respiratory syndrome coronavirus 2)
assayNotes: biochemical
setupConditions: read-out: %inhibition

{"columns": ["compound", "system", "inhibition at 100 µM"],
 "data": [
  ["Cc1cccc(Nc2ccncc2S(=O)(=O)NC(=O)NC(C)C)c1 [Torsemide]", "SARS-CoV-2 Mac1 (Severe acute respiratory syndrome coronavirus 2)", "15.1%"],
  ["C[C@H]1C[C@H]2[C@@H]3CCC4=CC(=O)C=C[C@]4(C)[C@H]3C(=O)C[C@]2(C)[C@@]1(O)C(=O)CO", "SARS-CoV-2 Mac1 (Severe acute respiratory syndrome coronavirus 2)", "8.14%"],
  ["O=C(c1ccccc1)c1ccc2n1CCC2C(=O)O (stereo not shown)", "SARS-CoV-2 Mac1 (Severe acute respiratory syndrome coronavirus 2)", "11.8%"],
  ["CC(C)(C)C(=O)Oc1ccc(S(=O)(=O)Nc2ccccc2C(=O)NCC(=O)O)cc1", "SARS-CoV-2 Mac1 (Severe acute respiratory syndrome coronavirus 2)", "0%"]
]}

* * *

system: UniProt:P0DTD1
assayNotes: biochemical
setupConditions: read-out: %inhibition
Where a name gives a salt, the structure may show the parent alone. Numbered stars: 1 amine (or outer) side, 2 acyl side, 3 side chain; on linkers, the order of the positions; unused ones are H or OH. Bridge positions count the residues as written; N and C are the ends. Square brackets hold non-standard residues; d marks the D form. Peptide text beside a SMILES is read from it. * marks the point of attachment. pTerphenylCO(4''-OnC5H11) = CCCCCOc1ccc(-c2ccc(-c3ccc(C(=O)*)cc3)cc2)cc1; Orn(4R-OH,5R-OH) = O=C([C@H](C[C@@H](O)[C@@H](O)N[*:3])N[*:1])[*:2]; hTyr(3S-OH,4S-OH) = N[C@H](C(=O)O)[C@H](O)[C@@H](O)c1ccc(O)cc1; Pro(3S-OH,4S-Me) = C[C@H]1CN[C@H](C(=O)O)[C@H]1O; Hyp = O=C(O)[C@@H]1C[C@@H](O)CN1

{"columns": ["compound", "unitAnnotation", "inhibition at 100 µM"],
 "data": [
  ["Cc1ccccc1N1CCN(CCc2nnc3n2CCCC3)CC1 [Dapiprazole Hydrochloride]", "%", 12.7],
  ["O[C@H](CNC[C@@H](O)[C@H]1CCc2cc(F)ccc2O1)[C@@H]1CCc2cc(F)ccc2O1 [Nebivolol HCl]", "%", 0],
  ["CC(C(=O)O)c1ccc2c(c1)Cc1cccnc1O2 (stereo not drawn)", "%", 17.8],
  ["CCCCOc1ccc(C(=O)CCN2CCCCC2)cc1 [Dyclonine HCl]", "%", 0],
  ["CC(C)C[C@H](N)C(=O)O", "%", 0],
  ["CCC(=O)NC[C@@H]1C[C@H]1c1cccc2c1CCO2", "%", 0],
  ["C[C@]12CC[C@@H]3c4ccc(O)cc4CC[C@H]3[C@@H]1CCC2=O", "%", 0],
  ["CN[C@H](CC(C)C)C(=O)N[C@H]1C(=O)N[C@@H](CC(N)=O)C(=O)N[C@H]2C(=O)N[C@H]3C(=O)N[C@H](C(=O)N[C@H](C(=O)O)c4cc(O)cc(O)c4-c4cc3ccc4O)[C@H](O)c3ccc(c(Cl)c3)Oc3cc2cc(c3O[C@@H]2O[C@H](CO)[C@@H](O)[C@H](O)[C@H]2O[C@H]2C[C@](C)(N)[C@H](O)[C@H](C)O2)Oc2ccc(cc2Cl)[C@H]1O [Vancomycin HCl]", "%", 0],
  ["O=C(O)c1cc(=O)c2ccccc2o1", "%", 21.6],
  ["Nc1ccn([C@H]2CC[C@@H](CO)O2)c(=O)n1", "%", 19.2],
  ["COC(=O)C1=CCCN(C)C1", "%", 3.01],
  ["CC(C)(C(=O)O)c1ccc(C(O)CCCN2CCC(C(O)(c3ccccc3)c3ccccc3)CC2)cc1 (stereo not drawn) [Fexofenadine HCl]", "%", 9.61],
  ["CCN(C(=O)c1c(O)c2c(Cl)cccc2n(C)c1=O)c1ccccc1", "%", 22.6],
  ["CCCCCOc1ccc(-c2ccc(-c3ccc(C(=O)N[C@H]4C[C@@H](O)[C@@H](O)NC(=O)[C@@H]5[C@@H](O)[C@@H](C)CN5C(=O)[C@H]([C@@H](C)O)NC(=O)[C@H]([C@H](O)[C@@H](O)c5ccc(O)cc5)NC(=O)[C@@H]5C[C@@H](O)CN5C(=O)[C@H]([C@@H](C)O)NC4=O)cc3)cc2)cc1 [Anidulafungin (LY303366)] ({pTerphenylCO(4''-OnC5H11)}-[Orn(4R-OH,5R-OH)]T[Hyp][hTyr(3S-OH,4S-OH)]T[Pro(3S-OH,4S-Me)]; lactam 1-C)", "%", 6.34],
  ["CCc1nc(N)nc(N)c1-c1ccc(Cl)cc1", "%", 3.53],
  ["Cc1ncc(C[n+]2csc(CCO)c2C)c(N)n1 [Thiamine HCl (Vitamin B1)]", "%", 0],
  ["COC(=O)Nc1nc2cc(C(=O)c3ccccc3)ccc2[nH]1", "%", 0],
  ["CCCCCCCCCCCCCCCCOc1nc2ccc(C)cc2c(=O)o1", "%", 8.35],
  ["N#Cc1ccc(Oc2ccc3c(c2)COB3O)cc1", "%", 10],
  ["CCc1ccc(C(=O)C(C)CN2CCCCC2)cc1 (stereo not drawn) [Eperisone hydrochloride]", "%", 10.4],
  ["CC(=O)OC/C=C(C)/C=C/C=C(C)/C=C/C1=C(C)CCCC1(C)C [Vitamin A Acetate]", "%", 4.44],
  ["CNC[C@H](O)c1ccc(O)c(O)c1 [Epinephrine bitartrate]", "%", 10.7],
  ["COc1nccnc1NS(=O)(=O)c1ccc(N)cc1 [Sulfalene(SMPZ)]", "%", 5.42],
  ["NC(N)=Nc1nc(CSCC/C(N)=N/S(N)(=O)=O)cs1", "%", 1.86]
]}
